# credit: paper PMC7587356

Molecular target: SARS-CoV-2 3CLpro (Severe acute respiratory syndrome coronavirus 2)
Experiment: biochemical
Format: biochemical
Details: 4 h, read-out: Replicate_1
Counter-ions that a name gives are not always drawn.
Readout name: inhibition at 5 µM (%)
One number for each entry, in %.

Some compounds with recorded inhibition at 5 µM:
| Compound | Unit symbol | inhibition at 5 µM |
| --- | --- | --- |
| O=C1Cc2c([nH]c3ccc(Br)cc23)-c2ccccc2N1 | % | 1.52 |
| C=CC1=C(C)c2cc3[nH]c(cc4nc(cc5[nH]c(cc1n2)c(C)c5CCC(=O)O)C(CCC(=O)O)=C4C)c(C)c3C=C [Protoporphyrin IX disodium] | % | 2.66 |
| O=C(O)[C@@H]1[C@H](C(=O)O)[C@H]2CC[C@@H]1O2 [Endothall] | % | 3.42 |
| CNCCCC12CCC(c3ccccc31)c1ccccc12 [Maprotiline hydrochloride] | % | 4 |
| CC(C)[C@@]1(NC(=O)[C@@H]2C=C3c4cccc5[nH]cc(c45)C[C@H]3N(C)C2)O[C@@]2(O)[C@@H]3CCCN3C(=O)[C@H](Cc3ccccc3)N2C1=O | % | 4.04 |
| O=c1c(O)c(-c2ccc(O)cc2O)oc2cc(O)cc(O)c12 | % | 6.85 |
| CNCCCC1c2ccccc2C=Cc2ccccc21 [Protriptyline hydrochloride] | % | 1.19 |
| COc1ccc(/C=C/C(=O)Nc2ccccc2C(=O)O)cc1OC | % | 0.566 |
| CN(C)CCCN1c2ccccc2Sc2ccc(Cl)cc21 [Chlorpromazine hydrochloride] | % | 0.794 |
| O=C(O)CCc1nc(-c2ccccc2)c(-c2ccccc2)o1 | % | 3.59 |

For each of the items listed, what is its inhibition at 5 µM?
1. CCN(CC)CCCC(C)Nc1ccnc2cc(Cl)ccc12 (stereo not drawn) [Chloroquine diphosphate]
2. CCCCNc1cc(C(=O)O)cc(S(N)(=O)=O)c1Oc1ccccc1 [Bumetanide]
3. Oc1ccc(O)cc1 [Hydroquinone]
4. C=CCN1CC[C@]23c4c5ccc(O)c4O[C@H]2/C(=N/NC(=O)c2ccccc2)CC[C@@]3(O)[C@H]1C5 [Naloxone benzoylhydrazone]
5. Nc1ncnc2c1ncn2[C@@H]1O[C@H](CO)[C@@H](O)[C@H]1O
6. CNC[C@H](O)c1ccc(O)c(O)c1 [(-)-Epinephrine bitartrate]
7. CC(NC(C)(C)C)C(=O)c1cccc(Cl)c1 (stereo not drawn) [Bupropion hydrochloride]
8. CC(C)NP(=O)(NC(C)C)OP(=O)(NC(C)C)NC(C)C [Tetraisopropyl pyrophosphoramide]

## Output
1: 2.19; 2: -0.596; 3: 3.41; 4: 2.85; 5: 1.26; 6: 5.37; 7: 2.66; 8: 1.18

For each of the items listed, what is its inhibition at 5 µM?
1. CNCCC=C1c2ccccc2CCc2ccccc21 [Nortriptyline hydrochloride]
2. COc1cc(Cc2cnc(N)nc2N)cc(OC)c1OC
3. CC1(C)CCC2=C(O1)c1ccccc1C(=O)C2=O
4. CS(=O)(=O)Nc1ccc([N+](=O)[O-])cc1Oc1ccccc1 [Nimesulide]

## Output
[2.88, -0.343, 0.593, 4.73]

For each of the items listed, what is its inhibition at 5 µM?
1. N=C(N)N1CCc2ccccc2C1 [Debrisoquin sulfate]
2. Clc1ccccc1C(c1ccccc1)(c1ccccc1)n1ccnc1
3. NCCc1c[nH]cn1 [Histamine dihydrochloride]
4. Oc1ccc2c3c1O[C@H]1[C@@H](O)CC[C@@]4(O)[C@@H](C2)N(CC2CCC2)CC[C@]314 [Nalbuphine hydrochloride]

## Output
[2.87, 3.08, 3.24, 4.1]

For each of the items listed, what is its inhibition at 5 µM?
1. O=c1cc(-c2ccc(O)cc2)oc2cc(O)cc(O)c12
2. O=P1(N(CCCl)CCCl)NCCCO1 (stereo not drawn) [Cyclophosphamide monohydrate]

## Output
0.663
-1.54

For each of the items listed, what is its inhibition at 5 µM?
1. Nc1nc2ccc(Cl)cc2c2nc(-c3ccco3)nn12
2. Cc1ccc(Cl)c(Nc2ccccc2C(=O)O)c1Cl [Meclofenamic acid sodium]
3. C[C@@]12C(=O)OC(=O)[C@]1(C)[C@H]1CC[C@@H]2O1

## Output
1. 3.31
2. 1.45
3. 1.95

For each of the items listed, what is its inhibition at 5 µM?
1. C[C@]12CCC(=O)C=C1CC[C@@H]1[C@@H]2CC[C@]2(C)C(=O)CC[C@@H]12
2. Oc1ccc2c3c1O[C@H]1c4oc5ccccc5c4C[C@@]4(O)[C@@H](C2)N(CC2CC2)CC[C@]314 [Naltriben methanesulfonate]

## Output
[0.757, 4.4]

###

Target: SARS-CoV-2 3CLpro (Severe acute respiratory syndrome coronavirus 2)
Assay: biochemical
Type: biochemical
Conditions: 4 h, read-out: Replicate_2 (LOPAC_screen_w_protease)
Structures can show the parent of a compound that is named as a salt.
Readout name: inhibition at 5 µM (%)
Answers are plain numbers, in %.

Some compounds with recorded inhibition at 5 µM:
| Compound | inhibition at 5 µM (%) |
| --- | --- |
| O=c1c(-c2ccc(O)cc2)coc2cc(O)cc(O)c12 | 0.656 |
| NCCCCN [Putrescine dihydrochloride] | -0.258 |
| NC(=O)N1c2ccccc2C=Cc2ccccc21 [Carbamazepine] | 1.39 |
| O=c1c(O)c(-c2ccc(O)c(O)c2)oc2cc(O)cc(O)c12 [Quercetin dihydrate] | 1.18 |

For each of the items listed, what is its inhibition at 5 µM?
1. CC(C)(C)c1cc(C=C(C#N)C#N)cc(C(C)(C)C)c1O
2. COC(=O)[C@H]1[C@H]2C[C@@H]3c4[nH]c5cc(OC)ccc5c4CCN3C[C@H]2C[C@@H](OC(=O)c2cc(OC)c(OC)c(OC)c2)[C@@H]1OC

## Output
1: 1.31; 2: 0.694

###

Biological target: SARS-CoV-2 3CLpro (Severe acute respiratory syndrome coronavirus 2)
Test: biochemical
Assay type: biochemical
Conditions: LOPAC1280 primary screen with protease, 5 µM compound, replicate 2
Readout name: Replicate_2 (LOPAC_screen_w_protease)

Some compounds with recorded Replicate_2 (LOPAC_screen_w_protease):
| Compound | Replicate_2 (LOPAC_screen_w_protease) |
| --- | --- |
| N#CC(=Cc1c[nH]c2ccccc12)C(=O)c1ccc(O)c(O)c1 | 1.0189 |
| NC(CCCP(=O)(O)O)C(=O)O (racemic) [(±)-2-Amino-5-phosphonopentanoic acid] | 1.526 |
| CC(C)NCC(O)c1ccc(NS(C)(=O)=O)cc1.Cl (racemic) [(±)-Sotalol hydrochloride] | 1.826 |
| CC(=O)C(C)=NO | 1.497 |
| O=C(O)[C@H]1CCCN[C@H]1C(=O)O (racemic) [(±)-cis-Piperidine-2,3-dicarboxylic acid] | 2.056 |
| COc1ccc2[nH]cc(CCN)c2c1.Cl [O-Methylserotonin hydrochloride] | 0.9034 |
| CN1CC[C@]2(CCN3CCc4c(oc5ccccc45)[C@@H]3C2)N(C)C1=O | 1.529 |
| CCCN(CCC)[C@@H]1CCc2c(F)ccc(O)c2C1.Cl [R(+)-UH-301 hydrochloride] | 1.103 |
| CCCCCCCC/C=C\CCCCCCCC(=O)NCCc1ccc(O)c(O)c1 | 3.912 |
| C[N+](C)(C)CCCCCC[N+](C)(C)C.[Cl-].[Cl-] [Hexamethonium dichloride] | -0.1911 |

For each of the items listed, what is its Replicate_2 (LOPAC_screen_w_protease)?
1. OC[C@H]1O[C@@H](n2cnc3c(NC4CCCCC4)ncnc32)[C@H](O)[C@@H]1O
2. CC1CCN(CC[C@H]2CCCN2S(=O)(=O)c2cccc(O)c2)CC1.Cl [SB 269970 hydrochloride]
3. Oc1cccc2c(O)nccc12
4. Cc1nc(N=Nc2ccc(C(=O)O)cc2)c(COP(=O)(O)O)c(C=O)c1O
5. CC(C)Cn1c(=O)n(C)c(=O)c2[nH]cnc21
6. CC(C)Cc1ccc([C@H](C)C(=O)O)cc1 [S(+)-Ibuprofen]

## Output
1: 0.606; 2: 2.851; 3: 2.882; 4: 1.658; 5: 4.138; 6: 2.279

## Input // lookup Replicate_2 (LOPAC_screen_w_protease) for O=C(O)[C@H]1C[C@H](C(=O)O)N1 (relative stereo) [trans-Azetidine-2,4-dicarboxylic acid]
## Output 2.855

###

Target: SARS-CoV-2 3CLpro (Severe acute respiratory syndrome coronavirus 2)
Experiment: biochemical
Type: biochemical
Conditions: 4 h, sheet LOPAC_screen_w_protease; LOPAC1280 primary screen with protease, 5 µM compound; replicate 1; read-out: Replicate_1
Structures can show the parent of a compound that is named as a salt.
Please provide measured inhibition at 5 µM for the entries that follow.
Write the quantity with the unit trailing the number.

| Molecule | Study system | inhibition at 5 µM |
| --- | --- | --- |
| C[C@H]1c2cccc(O)c2C(=O)C2=C(O)[C@]3(O)C(=O)C(C(N)=O)=C(O)[C@@H](N(C)C)[C@@H]3[C@@H](O)[C@@H]21 [Doxycycline hydrochloride] | SARS-CoV-2 3CLpro (Severe acute respiratory syndrome coronavirus 2) | 5.78% |
| CN(C)S(=O)(=O)c1ccc2c(c1)/C(=C/c1cc3c([nH]1)CCCC3)C(=O)N2 | SARS-CoV-2 3CLpro (Severe acute respiratory syndrome coronavirus 2) | 3.58% |
| CCCCC1C(=O)N(c2ccccc2)N(c2ccccc2)C1=O | SARS-CoV-2 3CLpro (Severe acute respiratory syndrome coronavirus 2) | 6% |
| CC(COc1ccccc1)N(CCCl)Cc1ccccc1 (stereo not shown) [Phenoxybenzamine hydrochloride] | SARS-CoV-2 3CLpro (Severe acute respiratory syndrome coronavirus 2) | 4.24% |
| CCN(CC)CC#CCOC(=O)C(O)(c1ccccc1)C1CCCCC1 (stereo not shown) [Oxybutynin Chloride] | SARS-CoV-2 3CLpro (Severe acute respiratory syndrome coronavirus 2) | 4.91% |
| C=C/C(C)=C/[C@@]1(C)SC(=O)C(C)=C1O | SARS-CoV-2 3CLpro (Severe acute respiratory syndrome coronavirus 2) | 2.88% |

Now consider a different molecule.
## Input // lookup inhibition at 5 µM for CN(C)[C@@H]1C(O)=C(C(N)=O)C(=O)[C@@]2(O)C(O)=C3C(=O)c4c(O)ccc(Cl)c4[C@@H](O)[C@H]3C[C@@H]12 [Demeclocycline hydrochloride]
## Output 7.2%
